- testedTarget: Type-1 angiotensin II receptor (Homo sapiens)
- testDescription: AGTR1 antagonism selectivity check – cell-based, CHO-K1 PathHunter, luminescence, selectivity assay for APJ antagonist project, SAR follow-up (AID 488810);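 also: agonist challenge with angiotensin II at 50 nM final near its EC80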
- measurementSetup: CHO-K1 AGTR1 PathHunter beta-arrestin, antagonist mode
Activity calls are given as the source filed them.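 The calls were made as follows: active = compounds with IC50 below 20 µM; inactive = the rest.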
measuredMetric: IC50

Known IC50 results, listed for orientation:
Reported IC50, compound `C=CCOc1cccc(CSc2ncccn2)c1` : ____
> 79 µM (inactive)

Now this one: `Cc1ccc(C(=O)Oc2coc(CSc3ncccn3)cc2=O)cc1[N+](=O)[O-]`
> 79 µM (inactive)

Now this one: `Cc1ccc(C(=O)CNc2ccccc2)cc1`
3.37 µM

Now this one: `O=C(Oc1coc(CSc2ncccn2)cc1=O)c1cccc([N+](=O)[O-])c1`
> 79 µM (inactive)

Now this one: `Cc1ccnc(SCc2cc(=O)c(OC(=O)c3ccc(S(=O)(=O)N4CCCC4)cc3)co2)n1`
> 79 µM (inactive)

Now this one: `Cc1cc(C)nc(NNS(=O)(=O)c2ccc(Cl)cc2)n1`
12.4 µM

Now this one: `NC(=O)c1ccccc1NCC(=O)c1ccc(Cl)cc1`
3.24 µM

Now this one: `O=C(CNC(=O)c1ccco1)NCC(=O)OCC(=O)c1ccc(Cl)c([N+](=O)[O-])c1`
4.78 µM

Now this one: CC(=O)Oc1cc2c(cc1Cl)C(c1ccccc1Cl)CC1(CC(C)(C)NC(=S)N1)O2 (stereo unspecified)
inactive

Now this one: `COc1cccc(/C=C/c2ccc3cccc(O)c3n2)c1OC`
14.1 µM

Further cases:
Reported IC50, compound `COc1ccc(S(=O)(=O)NNc2nc(C)cc(C)n2)cc1Br` : ____
inactive

Now this one: `Cc1ccnc(SCc2cc(=O)c(OC(=O)c3cc(Cl)ccc3[N+](=O)[O-])co2)n1`
inactive

Now this one: `N#Cc1ccc(C(=O)Oc2coc(CSc3ncccn3)cc2=O)cc1`
> 79 µM (inactive)

---

- testedTarget: Type-1 angiotensin II receptor (Homo sapiens) (UniProt P30556)
- Sequence (P30556 whole entry, looked up): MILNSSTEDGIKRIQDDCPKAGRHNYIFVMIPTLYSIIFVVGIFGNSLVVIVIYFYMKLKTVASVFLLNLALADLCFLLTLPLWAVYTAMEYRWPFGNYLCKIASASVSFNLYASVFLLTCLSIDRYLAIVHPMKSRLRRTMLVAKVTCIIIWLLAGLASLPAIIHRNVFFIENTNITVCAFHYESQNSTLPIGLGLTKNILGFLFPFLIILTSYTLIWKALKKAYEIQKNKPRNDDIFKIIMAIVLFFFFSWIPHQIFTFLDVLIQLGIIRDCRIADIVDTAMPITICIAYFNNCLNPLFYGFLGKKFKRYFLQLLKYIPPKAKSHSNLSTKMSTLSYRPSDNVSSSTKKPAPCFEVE
- testDescription: AGTR1 antagonism selectivity check – cell-based, CHO-K1 PathHunter, luminescence, selectivity assay for APJ antagonist project, SAR follow-up (AID 488810);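 also: agonist challenge with angiotensin II at 50 nM final near its EC80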
- measurementSetup: CHO-K1 AGTR1 PathHunter beta-arrestin, antagonist mode
Activity calls are given as the source filed them.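 Rule for the calls: active = compounds with IC50 below 20 µM; inactive = the rest.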
Write down one outcome, taken from Y = active, N = inactive

Field: example entries. Status: answers known.
Write down the call the test reported for this molecule. Item: `O=c1cc(CSc2ccc(Cl)cc2)nc(-c2ccccn2)[nH]1`
Y

Now this one: `Cc1ccc(C(=O)Oc2coc(CSc3ncccn3)cc2=O)cc1`
N

Now this one: `Cc1cc(C)nc(SCc2cccc(O)c2)n1`
N

Now this one: `Cc1ccnc(SCc2cc(=O)c(OC(=O)c3ccc(C(F)(F)F)cc3)co2)n1`
N

Now this one: `Cc1cc(C)nc(SCc2ccc(O)c(Cl)c2)n1`
N

Now this one: `CN(C)S(=O)(=O)c1ccc(C(=O)Oc2coc(CSc3ncccn3)cc2=O)cc1`
N

Further cases:
Write down the call the test reported for this molecule. Item: `O=C(Oc1coc(CSc2ccccc2)cc1=O)c1ccc(Cl)c([N+](=O)[O-])c1`
N

Now this one: `O=C(Oc1coc(CSc2ncccn2)cc1=O)c1ccccc1`
N

Now this one: `C=CCOc1cccc(CSc2nc(C)cc(C)n2)c1`
N

Now this one: S=C1NCCc2ccccc2C1c1ccccc1Cl (stereo unspecified)
Y

Now this one: `COc1ccc(C(=O)Oc2coc(CSc3nccc(C)n3)cc2=O)cc1`
N

---

- testedTarget: UniProt:P30556
- testDescription: AGTR1 antagonism selectivity check – cell-based, CHO-K1 PathHunter, luminescence, selectivity assay for APJ antagonist project, SAR follow-up (AID 488810);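 also: agonist challenge with angiotensin II at 50 nM final near its EC80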
- measurementSetup: CHO-K1 AGTR1 PathHunter beta-arrestin, antagonist mode
The source made the active and inactive calls.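 The calls were made as follows: active = compounds with IC50 below 20 µM; inactive = the rest.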
Write down one outcome, taken from YES for active, NO for inactive

Write down the call the test reported for this compound. Item: `Cc1ccnc(SCc2cc(=O)c(OC(=O)c3ccc(C#N)cc3)co2)n1`
NO

Further cases:
Write down the call the test reported for this compound. Item: `COc1ccc(S(=O)(=O)NNc2nc(C)cc(C)n2)cc1[N+](=O)[O-]`
NO

Now this one: `O=C1Nc2ccccc2C1=Nc1ccc(Br)cc1`
YES

Now this one: `Cc1cc(C)nc(SCc2cc(=O)c(OC(=O)c3ccc(S(=O)(=O)N(C)C)cc3)co2)n1`
NO

Now this one: `Cc1cc(C)nc(SCc2cc(=O)c(OC(=O)c3ccc(Cl)c([N+](=O)[O-])c3)co2)n1`
NO

Now this one: `Cc1ccnc(SCc2cc(=O)c(OC(=O)c3cc([N+](=O)[O-])ccc3Cl)co2)n1`
NO

Now this one: `O=C(CNc1cccc(Cl)c1)c1ccc(Br)cc1`
YES

Now this one: `Oc1cccc2ccc(/C=C/c3ccccc3Cl)nc12`
YES

Now this one: `Cc1cc(C)nc(NNS(=O)(=O)c2ccc(F)c(Cl)c2)n1`
YES

Now this one: COc1ccc(C2CC3(CC(C)(C)NC(=S)N3)Oc3cc(O)cc(C)c32)cc1 (stereo not given)
NO

---

- testedTarget: Type-1 angiotensin II receptor (Homo sapiens) (UniProt P30556)
- testDescription: AGTR1 antagonism selectivity check – cell-based, CHO-K1 PathHunter, luminescence, selectivity assay for APJ antagonist project, SAR follow-up (AID 488810);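 also: agonist challenge with angiotensin II at 50 nM final near its EC80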
- measurementSetup: CHO-K1 AGTR1 PathHunter beta-arrestin, antagonist mode
Active and inactive are the calls of the source.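 Rule for the calls: active = compounds with IC50 below 20 µM; inactive = the rest.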
Write down one outcome, taken from active, inactive

Field: example entries. Status: answers known.
Write down the call the test reported for this molecule. Item: Cc1ccc(NCC(O)c2ccccc2)cc1 (stereo unspecified)
inactive

Now this one: `Cc1ccc(C(=O)Oc2coc(CSc3ncccn3)cc2=O)cc1C`
inactive

Now this one: `O=C(Oc1coc(CSc2ncccn2)cc1=O)c1ccc(-c2ccccc2)cc1`
inactive

Now this one: COc1ccc(C2CC3(CC(C)(C)NC(=S)N3)Oc3cc(OC(C)=O)cc(C)c32)cc1 (stereo unspecified)
inactive

Now this one: `CCCCOc1ccc(C(=O)Oc2coc(CSc3ncccn3)cc2=O)cc1`
inactive

Now this one: `CCN(CC)CC(=O)c1ccc(-c2ccccc2)cc1`
active

Further cases:
Write down the call the test reported for this molecule. Item: `O=C(COC(=O)c1cccnc1)c1ccc(Cl)c(Cl)c1`
inactive

---

- testedTarget: Type-1 angiotensin II receptor (Homo sapiens) (UniProt P30556)
- testDescription: AGTR1 antagonism selectivity check – cell-based, CHO-K1 PathHunter, luminescence, selectivity assay for APJ antagonist project, SAR follow-up (AID 488810);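 also: agonist challenge with angiotensin II at 50 nM final near its EC80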
- measurementSetup: CHO-K1 AGTR1 PathHunter beta-arrestin, antagonist mode
Activity calls are given as the source filed them.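 How the source made its calls: active means compounds with IC50 below 20 µM; inactive means the rest.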
Write down one outcome, taken from active, inactive

Write down the call the test reported for this molecule. Item: `Cc1ccc(NCC(=O)c2ccccc2)cc1`
active

Further cases:
Write down the call the test reported for this molecule. Item: `O=C(CNc1ccc(Br)cc1)c1ccccc1`
active

Now this one: `Cc1ccc(OCC(=O)OCC(=O)c2cccc([N+](=O)[O-])c2)cc1C`
active

Now this one: CC1(C)CC2(CC(c3ccccc3Cl)c3ccc(O)cc3O2)NC(=O)N1 (stereo unspecified)
inactive

Now this one: `Cc1ccnc(SCc2cc(=O)c(OC(=O)c3ccc(Cl)cc3)co2)n1`
inactive

Now this one: `O=C(COC(=O)c1ccncc1)c1ccc(Cl)c(Cl)c1`
active

---

- testedTarget: Type-1 angiotensin II receptor (Homo sapiens)
- testDescription: AGTR1 antagonism selectivity check – cell-based, CHO-K1 PathHunter, luminescence, selectivity assay for APJ antagonist project, SAR follow-up (AID 488810);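 also: agonist challenge with angiotensin II at 50 nM final near its EC80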
- measurementSetup: CHO-K1 AGTR1 PathHunter beta-arrestin, antagonist mode
Active and inactive are the calls of the source.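 How the source made its calls: active means compounds with IC50 below 20 µM; inactive means the rest.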
Write down one outcome, taken from label 1 for active, label 0 for inactive

Write down the call the test reported for this compound. Item: `O=c1c2cc(Br)ccc2[nH]c(=S)n1Cc1ccccn1`
label 1

Now this one: `O=c1cc(CSc2ccccc2)occ1O`
label 0

Now this one: `Cc1ccnc(SCc2cc(=O)c(O)co2)n1`
label 0

Now this one: `Cc1ccc(N=C2C(=O)Nc3ccc(Br)cc32)cc1`
label 1

Now this one: `O=S(=O)(NN=Cc1ccc(-c2ccccc2Cl)o1)c1ccccc1`
label 0

Further cases:
Write down the call the test reported for this compound. Item: `Cc1ccc(N=C2C(=O)Nc3c(C)cccc32)cc1`
label 0

Now this one: `Cc1ccnc(SCc2cc(=O)c(OC(=O)c3cccc(Cl)c3)co2)n1`
label 0

Now this one: CCC1CCCCN1CC(=O)c1ccc(OC(F)F)cc1 (stereo not drawn)
label 0

---

- testedTarget: Type-1 angiotensin II receptor (Homo sapiens) (UniProt P30556)
- testDescription: AGTR1 antagonism selectivity check – cell-based, CHO-K1 PathHunter, luminescence, selectivity assay for APJ antagonist project, SAR follow-up (AID 488810);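 also: agonist challenge with angiotensin II at 50 nM final near its EC80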
- measurementSetup: CHO-K1 AGTR1 PathHunter beta-arrestin, antagonist mode
Active and inactive are the calls of the source.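 Rule for the calls: active = compounds with IC50 below 20 µM; inactive = the rest.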
Write down one outcome, taken from active, inactive

Field: example entries. Status: answers known.
Write down the call the test reported for this compound. Item: `CC(=O)c1ccc(N=C2C(=O)Nc3ccccc32)cc1`
active

Now this one: COC(=O)C1NN=C(C(=O)c2ccc(Cl)cc2)C1c1ccc(OC)cc1 (centres undefined)
active

Now this one: `COc1ccc(N=C2C(=O)Nc3ccc(C)c(Br)c32)cc1`
inactive

Now, please, on to the next compound.
Write down the call the test reported for this compound. Item: `Cc1ccnc(SCc2cc(=O)c(OC(=O)c3ccc([N+](=O)[O-])cc3)co2)n1`
inactive
